Molecular target: Human Ganglion (Homo sapiens, UniProt P30926+P32297)
Construct: endogenous in cells
Sequence (P32297 32-505): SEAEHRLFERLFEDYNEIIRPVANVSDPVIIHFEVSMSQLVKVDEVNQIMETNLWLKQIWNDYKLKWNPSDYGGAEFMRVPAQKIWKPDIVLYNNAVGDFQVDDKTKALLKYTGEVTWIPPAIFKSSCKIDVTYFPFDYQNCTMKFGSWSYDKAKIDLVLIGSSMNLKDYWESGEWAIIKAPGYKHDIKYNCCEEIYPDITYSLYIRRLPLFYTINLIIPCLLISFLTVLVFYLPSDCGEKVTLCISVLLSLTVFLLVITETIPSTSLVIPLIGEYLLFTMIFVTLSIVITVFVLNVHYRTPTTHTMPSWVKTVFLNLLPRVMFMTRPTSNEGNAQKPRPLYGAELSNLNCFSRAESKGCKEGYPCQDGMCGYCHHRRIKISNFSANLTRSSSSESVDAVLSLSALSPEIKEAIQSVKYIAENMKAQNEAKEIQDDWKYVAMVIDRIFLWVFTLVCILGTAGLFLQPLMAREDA
Sequence (P30926 22-498): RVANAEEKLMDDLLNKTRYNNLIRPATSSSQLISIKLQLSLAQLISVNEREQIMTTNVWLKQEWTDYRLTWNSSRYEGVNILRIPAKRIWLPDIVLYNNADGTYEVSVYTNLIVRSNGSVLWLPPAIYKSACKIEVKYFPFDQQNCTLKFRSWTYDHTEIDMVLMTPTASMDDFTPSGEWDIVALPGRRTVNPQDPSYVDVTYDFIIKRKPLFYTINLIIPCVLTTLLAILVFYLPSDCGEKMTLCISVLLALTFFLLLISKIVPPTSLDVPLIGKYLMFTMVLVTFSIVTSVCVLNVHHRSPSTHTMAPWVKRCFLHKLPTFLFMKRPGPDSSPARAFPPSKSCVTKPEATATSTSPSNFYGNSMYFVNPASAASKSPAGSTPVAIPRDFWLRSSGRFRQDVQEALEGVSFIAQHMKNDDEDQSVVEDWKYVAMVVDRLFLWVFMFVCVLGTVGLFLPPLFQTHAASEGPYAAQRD
Test: Competition binding to receptors in membrane preparations, human ganglion subtype ([3H]-epibatidine)
Quick list: Ki per entry.
ASSAY_ENDPOINT: Ki (µM)

>>> quantitative_result("CN[C@@H](C)C/C=C/c1cncc(O[C@H]2CCN(C(=O)C3CCCC3)C2)c1")
13
>>> quantitative_result("CN[C@@H](C)C/C=C/c1cncc(O[C@H]2CCN(C(=O)CC(C)(C)C)C2)c1")
12
>>> quantitative_result("CN[C@@H](C)C/C=C/c1cnc(Cl)c(O[C@@H]2CCN(C(=O)CCC(F)(F)F)C2)c1 [drawing 62]")
7.4

====

Quick reference for pKi among some compounds
Biological target: UniProt P36544
Sequence (P36544 23-502): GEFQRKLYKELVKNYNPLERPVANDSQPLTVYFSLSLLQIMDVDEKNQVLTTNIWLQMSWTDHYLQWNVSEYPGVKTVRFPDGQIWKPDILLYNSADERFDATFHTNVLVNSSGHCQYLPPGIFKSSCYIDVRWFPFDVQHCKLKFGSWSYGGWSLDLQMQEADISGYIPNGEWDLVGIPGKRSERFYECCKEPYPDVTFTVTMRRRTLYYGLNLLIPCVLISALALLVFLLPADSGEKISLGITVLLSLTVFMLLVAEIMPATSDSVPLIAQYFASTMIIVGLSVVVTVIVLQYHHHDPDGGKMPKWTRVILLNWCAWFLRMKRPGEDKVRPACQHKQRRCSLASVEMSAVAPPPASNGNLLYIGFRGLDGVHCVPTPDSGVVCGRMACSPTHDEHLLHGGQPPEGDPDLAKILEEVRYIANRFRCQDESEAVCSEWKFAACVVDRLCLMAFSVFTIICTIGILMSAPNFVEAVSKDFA
pKi: −log10 of the molar value.
ASSAY_ENDPOINT: pKi

>>> quantitative_result("CN[C@@H](C)C/C=C/c1cncc(O[C@@H]2CCN(C(=O)CC3CCCC3)C2)c1")
4.28
>>> quantitative_result("CN[C@@H](C)C/C=C/c1cncc(O[C@@H]2CCN(C(=O)c3ccc(F)cc3)C2)c1")
4.28
>>> quantitative_result("CN[C@@H](C)C/C=C/c1cnc(Cl)c(O[C@H]2CCN(C(=O)c3ccc(F)cc3)C2)c1")
4.01

Where do the numbers come from? From patent US20150119378A1.
